# Tested on: MDA-MB-435 melanoma
# assayDetails: NCI-60 one-dose screen, 48 h
# measurementParameters: 10 µM unless noted
Compounds without any hit were thinned out: in the full panel of roughly 83,000, 20% have a hit. Calls of active or inactive are those of the source. Rule for the calls: active = growth percent below 10; inactive = the rest.
Labels: YES = active, NO = inactive

>>> classname("C=C(C)[C@@H]1CC[C@]2(C(=O)N3CCN(C)CC3)CC[C@]3(C)[C@H](CC[C@@H]4[C@@]5(C)C/C(=C/c6cccnc6)C(=O)C(C)(C)[C@@H]5CC[C@]43C)[C@@H]12")
"NO"
>>> classname("C=C(C)[C@@H]1CC[C@]2(C(=O)N[C@@H](Cc3ccccc3)C(=O)OC)CC[C@]3(C)[C@H](CC[C@@H]4[C@@]5(C)CCC(=O)C(C)(C)[C@@H]5CC[C@]43C)[C@@H]12")
"NO"
>>> classname("COc1ccc(/C=C/c2nc(Nc3ccc(Cl)cc3)c3ccccc3n2)cc1")
"NO"
>>> classname("O=C1c2cccc3c(-c4ccc5c(c4)ncn5C4CCCCC4)ccc(c23)C(=O)N1CCO")
"NO"
>>> classname("O=C(N/N=C/c1ccc(Oc2ccccc2)cc1)c1cnn2c1NC(c1ccccc1)C2 (stereo unspecified)")
"YES"
>>> classname("O=C(/C=C/c1c(-c2ccc(Cl)cc2)nn(-c2ccccc2)c1C(F)(F)F)c1ccc(Cl)cc1")
"NO"

* * *

# System: MALME-3M melanoma
# assayDetails: NCI-60 one-dose screen, 48 h (100 = growth as untreated, 0 = no growth, -100 = all killed)
# measurementParameters: 10 µM unless noted
Compounds without any hit were thinned out: in the full panel of roughly 83,000, 20% have a hit.
The reader will find reported growth values listed item by item below.
observationType: growth (%)

>>> numericresult("N#CC1=C(/N=C/c2ccccc2)Oc2c(ccc3ccccc23)C1c1ccc([N+](=O)[O-])cc1 (stereo unspecified)")
96.6
>>> numericresult("OC(c1cccc(C(F)(F)F)c1)c1cnccc1NC1CCCCC1 (stereo unspecified)")
83.2
>>> numericresult("CC1(C)NCCC[C@]2(C)[C@H]3CC(=O)[C@H]4[C@@H]5C[C@](C)(CO)CC[C@]5(C)CC[C@@]4(C)[C@]3(C)CC[C@@H]12")
102
>>> numericresult("O=C1Nc2cc(-c3ccc(NS(=O)(=O)c4ccccc4)cc3)ccc2/C1=C/c1ccc[nH]1")
85.5
>>> numericresult("CNCCOc1nc2c3cnccc3cc(-c3cc(OC)c(OC)c(OC)c3)c2c2ccncc12")
-80.2
>>> numericresult("CCCCN1C=CCN(CCCC)C1")
-22.1
>>> numericresult("CCCCCCCCCCCCCCCC[N+]1(C)CCN(SN2CC[N+](C)(CCCCCCCCCCCCCCCC)CC2)CC1")
78.4
>>> numericresult("Cc1nc2sccn2c1-c1nc2sccn2c1/C=C1/C(=O)Nc2ccccc21")
50
>>> numericresult("COc1ccc(C(=O)/C=C/c2cc3ccccc3n3nnnc23)cc1")
108
>>> numericresult("N#Cc1c(-c2ccccc2)nc2c(c(-c3ccccc3)nn2-c2ccccc2)c1-c1ccc(O)cc1")
43.8
>>> numericresult("CCOC(=O)c1cc(C#N)n2ccc3ccccc3c12")
104
>>> numericresult("COc1cc(/C=C\\c2cc(/C=C\\c3ccc(O)c(OC)c3)n(C(=O)COc3ccccc3)n2)ccc1O")
7.21
>>> numericresult("COc1cccc(-c2ccc3c(c2)NC(=O)/C3=C\\c2ccc[nH]2)c1")
51.9
>>> numericresult("CNC(=O)c1cccc(Cn2nc(C)c(NC(=O)c3ccc(COc4ccc(C(F)(F)F)cc4C)cc3)c2C)n1")
83.8
>>> numericresult("COc1ccc(/C=C/c2nc(Nc3ccc(S(=O)(=O)NC(C)=O)cc3)c3ccccc3n2)cc1")
99.1
>>> numericresult("C=C1C(=O)O[C@H]2[C@H]1CC/C(COC(=O)NCC(C)c1ccc(CC(C)C)cc1)=C\\CC[C@@]1(C)O[C@@H]21 (stereo partly specified)")
-62.7

* * *

# Tested on: UO-31 renal
# assayDetails: NCI-60 one-dose screen, 48 h
# measurementParameters: 10 µM unless noted
# Description: Growth inhibition of the UO-31 human tumor cell line is measured as a screen for anti-cancer activity. Cells are grown in 96 well plates and exposed to the test compound for 48 hours. Compounds are tested at a single concentration, which is 10^-5 M for most compounds. The reported endpoint is percent growth (GI% or GIPRCNT), where numbers from 0 - 100% represent growth inhibition, and numbers from -100% - 0 represent cell death. For example, a value of 40 represents 60% growth inhibition. […]
The panel holds about 83,000 compounds, 20% with a hit somewhere; the sample as a whole holds those more often. Activity calls are given as the source filed them. How the source made its calls: active means growth percent below 10; inactive means the rest.
Labels: Y for active, N for inactive

>>> classname("CNC(=O)c1cc(Cn2nc(C)c(NC(=O)Nc3ccc(Cl)c(C(F)(F)F)c3)c2C)ccn1")
"N"
>>> classname("CC(=O)Oc1ccc(/C=N/NC(N)=S)nc1")
"N"
>>> classname("O=C(CSc1nc2sc3c(c2c(=O)n1-c1ccc(Cl)cc1)CCCC3)Nc1nc(-c2cccc(Br)c2)cs1")
"N"
>>> classname("COc1cc(CC(=O)n2ncc3ccc(N)cc32)cc(OC)c1OC")
"N"
>>> classname("CCCCNC(=O)Oc1ccc(/C(=C(\\C)c2ccccc2)c2ccc(OCCN3CCCCC3)cc2)cc1")
"N"
>>> classname("CCCCCCCCO/N=C\\c1c2c(O)c3c(O)c(C)c4c(c3c1O)C(=O)C(C)(O/C=C\\C(OC)C(C)C(OC(C)=O)C(C)C(O)C(C)C(O)C(C)/C=C\\C=C(\\C)C(=O)N2)O4 (configuration not stated)")
"N"
>>> classname("COc1ccc2c(c1)oc1c(C)c3c(c(C)c12)C(=O)N(CCN1CCOCC1)C3=O")
"N"
>>> classname("COc1ccc(-c2nc([C@@H](C)Sc3nc(N)cc(N)n3)c(C)s2)cc1OCCN1CCOCC1")
"N"
>>> classname("CCOC(=O)c1ccc2c(c1)ncn2-c1ccc(NC(=O)Nc2cccc(C)c2)cc1")
"N"
>>> classname("COc1ccc(C(=O)CC#N)cc1")
"N"
>>> classname("Cn1nc(CC#N)c2c(=N)n(N)cnc21")
"N"
>>> classname("CC(C)(C)[Si](C)(C)OC1[C@@H](O[Si](C)(C)C(C)(C)C)[C@@H](CNC(=O)NC(=O)CCl)O[C@H]1n1cnc2c(NC(=O)Nc3ccccc3)ncnc21 (some centres not stated)")
"Y"
>>> classname("CN1CCN(c2ccc(NC3=C(Cl)C(=O)c4ncccc4C3=O)cc2C(F)(F)F)CC1")
"Y"
>>> classname("O=S(=O)(NCCNc1nccc(-c2c(-c3cccc(O)c3)nc3occn23)n1)c1cccc(F)c1")
"N"
>>> classname("Nc1n[nH]c2cccc(C#Cc3cccc(C(=O)Nc4cc(CN5CCOCC5)cc(C(F)(F)F)c4)c3)c12")
"N"
>>> classname("O=C(N/N=C/c1cc2ccccc2n2nnnc12)Nc1ccccc1")
"N"
>>> classname("O=C(Nc1ccc(-c2ccc3c(c2)NC(=O)/C3=C\\c2ccc[nH]2)cc1)NC1CC1")
"N"
>>> classname("Cc1nn(-c2ccccc2)c(Cl)c1/C=C/C(=O)c1ccc(F)cc1")
"N"
>>> classname("CCCCCCNC(=O)Oc1ccc(/C(=C(\\C)c2ccccc2)c2ccc(OCCCN(C)C)cc2)cc1")
"N"
>>> classname("COc1ccc(C(=O)c2cc(OC)c(OC)c(OC)c2)cc1O")
"N"
>>> classname("CN(C)CCn1c2ccc(Br)cc2c2nc3ccccc3nc21")
"N"
>>> classname("COc1ccc(-c2nc3sccn3c2/C=C/C(=O)c2ccc3c(c2)OCO3)cc1")
"N"
>>> classname("COc1cc2oc(-c3cccc(C(=O)Nc4ccc5c(c4)OCO5)c3)cc(=O)c2c(O)c1OC")
"N"
>>> classname("OCc1cnc2ccccc2c1NC1CCCCCC1")
"N"
>>> classname("COc1cc(/C=N/NC(=O)c2cnn3c2NC(c2ccccc2)C3)ccc1OCc1ccccc1 (configuration not stated)")
"N"
>>> classname("N#C/C(=C\\c1ccc(Cl)cc1)n1nnc2cc(F)c(F)cc21")
"Y"
>>> classname("COc1cc2c(=O)n(CCN(C)C)c3c4cc5c(cc4ccc3c2cc1OC)OCO5")
"Y"

* * *

# System: MDA-MB-231 breast
# assayDetails: NCI-60 one-dose screen, 48 h
# measurementParameters: 10 µM unless noted
This is part of a sample that, as a whole, favours compounds with a hit. Of some 83,000 tested, about 20% had one in any assay. The source made the active and inactive calls. How the source made its calls: active means growth percent below 10; inactive means the rest.
Labels: T = active, F = inactive

>>> classname("COc1ccc2nc(-c3ccc(-c4noc(-c5cc(OC)c(OC)c(OC)c5)n4)cc3)[nH]c2c1")
"F"
>>> classname("COc1cc(/C=N/NC(=O)c2cnn3c2NC(c2ccccc2)C3)ccc1Oc1ccccc1 (stereo not given)")
"F"
>>> classname("CCCCC[n+]1ccc(SCC(=O)N(C)c2ccc(Oc3ccccc3)cc2)c2ccccc21")
"F"
>>> classname("CCN(c1ccccc1)S(=O)(=O)c1cc([N+](=O)[O-])ccc1Cl")
"F"
>>> classname("CCCCCCNC(=O)Oc1ccc(/C(=C(\\C)c2ccccc2)c2ccc(OCCCN(C)C)cc2)cc1")
"F"
>>> classname("N#Cc1c(-c2cccc([N+](=O)[O-])c2)nc(SCC(=O)c2ccc(Cl)cc2)[nH]c1=O")
"F"
>>> classname("C/C(=N\\NC(=O)CSc1nc2ccccc2c(=O)n1CCc1ccc(S(N)(=O)=O)cc1)c1ccccn1")
"F"
>>> classname("O=C1NN(C(=O)c2ccccc2)C(c2ccc(Cl)c(Cl)c2)=C/C1=C\\c1ccc([N+](=O)[O-])cc1")
"F"
>>> classname("Cc1nnc2c(Cc3ccccc3)nc3ccccc3n12")
"F"
>>> classname("COc1cc(/C=C/c2cc(O)c(C(C)=O)c(O)c2)cc2c1O[C@]1(C)CC[C@@H](O)C(C)(C)[C@H]1C2")
"F"
>>> classname("O=C1CC(=O)OC(c2ccc([N+](=O)[O-])cc2)O1")
"T"
>>> classname("COc1cc2nc(-c3ccc(Cl)cc3)cc(OCCCN3CCCCC3)c2cc1OC")
"F"
>>> classname("COc1ccc(C(=O)C2C(C#N)C(C#N)C3C=Cc4ccccc4N32)cc1 (stereo not given)")
"F"
>>> classname("COc1ccc(C(=O)C2C(C#N)C(C#N)C3c4ccccc4C=CN23)cc1 (stereo not given)")
"F"
>>> classname("N#Cc1c(NC(=O)NCc2ccccc2)sc2c1CCCC2")
"F"
>>> classname("CCc1ccc(-c2cn3ccnc3c(-c3ccc4ncn(Cc5ccccc5)c4c3)n2)cc1")
"F"
>>> classname("CSc1nc2sc3cccc(Cl)c3n2c(=N)c1C#N")
"F"
>>> classname("O=C(Nc1ncc(Cc2cc(Cl)ccc2Cl)s1)c1cccs1")
"F"
>>> classname("Nc1c(C(=O)Nc2cccc3cnccc23)sc2nc3c(cc12)C(=O)CCC3")
"F"
>>> classname("Cc1ccc(S(=O)(=O)NNC(=O)/C(=C\\c2ccc(Cl)cc2)c2nc3ccccc3s2)cc1")
"F"
>>> classname("CCN(CC)CCOc1ccc(NC(=O)C(C(C)C)N2C(=O)/C(=C/c3ccc(Br)cc3)SC2=S)cc1 (stereo not given)")
"F"
>>> classname("CC(C)c1ccc(Nc2ccc3c(OCCCN4CCN(C)CC4)cccc3n2)cc1")
"F"
>>> classname("O=C1Nc2ccc(F)cc2/C1=C\\c1c(-c2ccccc2)nc2ccccn12")
"F"
>>> classname("COc1cc(-c2csc(NC(=O)c3cc(F)cc(C(F)(F)F)c3)n2)cc(OC)c1OC")
"F"
>>> classname("O=C(Cc1ccc(/C=C/C(=O)c2ncc[nH]2)cc1)Nc1ccc(Cl)cc1")
"F"
>>> classname("CCCCCN1C=C/C(=C\\C(=O)n2ccc3ccccc32)c2ccccc21")
"F"
>>> classname("COc1ccc2[nH]c(=O)c(CN3CCN(c4nccc(-c5ccc(Cl)cc5)n4)CC3)cc2c1")
"F"
>>> classname("N#Cc1cccc(-c2ccc3c(c2)NC(=O)/C3=C\\c2ccc[nH]2)c1")
"F"
>>> classname("COc1cc(CC(=O)n2ncc3ccc(N)cc32)cc(OC)c1OC")
"F"
>>> classname("Cc1c(C(=O)NCCC(=O)NO)sc2ncnc(Nc3ccc(NC(=O)Nc4cccc(C(F)(F)F)c4)cc3)c12")
"F"
